Recorded values, source patent US7834005B2.

Test system: MALME-3M
ASSAY_METHOD_TEXT: 60-cell-line screen: MALME-3M (Melanoma)
Assay type: cell-based
TEST_SETTINGS: read-out: LC50 (the source's name)
OBSERVATION_TYPE: CC50 (nM)

• C=C1C[C@H]2C(O)Nc3cc(OCCCOc4cc5c(cc4OC)C(=O)N4CC(=C)C[C@H]4C(O)N5)c(OC)cc3C(=O)N2C1 (stereo partly shown) = 70.8

---

System: NCI/ADR-RES
ASSAY_METHOD_TEXT: 60-cell-line screen: NCI/ADR-RES (Breast)
Format: cell-based
OBSERVATION_TYPE: LC50 (µM)

- C=C1C[C@H]2C(O)Nc3cc(OCCCOc4cc5c(cc4OC)C(=O)N4CC(=C)C[C@H]4C(O)N5)c(OC)cc3C(=O)N2C1 (stereo partly shown) [Compound 16]: 1

---

ASSAY_METHOD_TEXT: in vivo efficacy, UACC-62 (melanoma) subcutaneous tumor model
Set-up: species or system athymic mice
TEST_SETTINGS: athymic, mouse, in vivo; UACC-62, Early-SC, QD X5, intravenous
OBSERVATION_TYPE: MTD at 5 days

• C=C1C[C@H]2C=Nc3cc(OCCCOc4cc5c(cc4OC)C(=O)N4CC(=C)C[C@H]4C=N5)c(OC)cc3C(=O)N2C1 [NSC 694501] = 0.054 mg/kg

---

ASSAY_METHOD_TEXT: in vivo efficacy, OVCAR-5 (ovarian ca) subcutaneous tumor model
Set-up: species or system athymic mice
TEST_SETTINGS: athymic, mouse, in vivo; OVCAR-5, Early-SC, QD X5, intravenous
OBSERVATION_TYPE: MTD at 5 days (mg/kg)

* C=C1C[C@H]2C=Nc3cc(OCCCOc4cc5c(cc4OC)C(=O)N4CC(=C)C[C@H]4C=N5)c(OC)cc3C(=O)N2C1 | 0.081

---

ASSAY_METHOD_TEXT: in vivo efficacy, LOX (melanoma) tumor model
Parameters: species or system athymic mice
TEST_SETTINGS: athymic, mouse, in vivo, intravenous, Early-SC, QD X5, intravenous
OBSERVATION_TYPE: MTD at 5 days

* C=C1C[C@H]2C=Nc3cc(OCCCOc4cc5c(cc4OC)C(=O)N4CC(=C)C[C@H]4C=N5)c(OC)cc3C(=O)N2C1 [NSC 694501] | 0.054 mg/kg

---

Tested on: A549/ATCC
ASSAY_METHOD_TEXT: 60-cell-line screen: A549/ATCC (Non-Small Cell Lung)
Assay type: cell-based
TEST_SETTINGS: read-out: LC50 (the source's name)
OBSERVATION_TYPE: CC50 (nM)

* C=C1C[C@H]2C(O)Nc3cc(OCCCOc4cc5c(cc4OC)C(=O)N4CC(=C)C[C@H]4C(O)N5)c(OC)cc3C(=O)N2C1 (stereo partly shown) | 1000

---

System: T-47D
ASSAY_METHOD_TEXT: 60-cell-line screen: T-47D (Breast)
Assay type: cell-based
TEST_SETTINGS: read-out: LC50 (the source's name)
OBSERVATION_TYPE: CC50 (µM)

• C=C1C[C@H]2C(O)Nc3cc(OCCCOc4cc5c(cc4OC)C(=O)N4CC(=C)C[C@H]4C(O)N5)c(OC)cc3C(=O)N2C1 (stereo partly shown) = 1

---

Tested on: HOP-92
ASSAY_METHOD_TEXT: 60-cell-line screen: HOP-92 (Non-Small Cell Lung)
Type: cell-based
TEST_SETTINGS: read-out: LC50 (the source's name)
OBSERVATION_TYPE: CC50 (µM)

* C=C1C[C@H]2C(O)Nc3cc(OCCCOc4cc5c(cc4OC)C(=O)N4CC(=C)C[C@H]4C(O)N5)c(OC)cc3C(=O)N2C1 (stereo partly shown) | 1

---

Test system: CAKI-1
ASSAY_METHOD_TEXT: 60-cell-line screen: CAKI-1 (Renal)
Assay type: cell-based
TEST_SETTINGS: read-out: LC50 (the source's name)
OBSERVATION_TYPE: CC50

- C=C1C[C@H]2C(O)Nc3cc(OCCCOc4cc5c(cc4OC)C(=O)N4CC(=C)C[C@H]4C(O)N5)c(OC)cc3C(=O)N2C1 (stereo partly shown): 1 µM

---

Tested on: COLO 205
ASSAY_METHOD_TEXT: 60-cell-line screen: COLO 205 (Colon)
Type: cell-based
TEST_SETTINGS: read-out: LC50 (the source's name)
OBSERVATION_TYPE: CC50 (nM)

* C=C1C[C@H]2C(O)Nc3cc(OCCCOc4cc5c(cc4OC)C(=O)N4CC(=C)C[C@H]4C(O)N5)c(OC)cc3C(=O)N2C1 (stereo partly shown) | 251

---

Tested on: SF-295
ASSAY_METHOD_TEXT: 60-cell-line screen: SF-295 (Central Nervous System)
Type: cell-based
TEST_SETTINGS: read-out: LC50 (the source's name)
OBSERVATION_TYPE: CC50 (nM)

* C=C1C[C@H]2C(O)Nc3cc(OCCCOc4cc5c(cc4OC)C(=O)N4CC(=C)C[C@H]4C(O)N5)c(OC)cc3C(=O)N2C1 (stereo partly shown) | 1000

---

System: DU-145
ASSAY_METHOD_TEXT: 60-cell-line screen: DU-145 (Prostate)
Assay type: cell-based
TEST_SETTINGS: read-out: LC50 (the source's name)
OBSERVATION_TYPE: CC50 (µM)

• C=C1C[C@H]2C(O)Nc3cc(OCCCOc4cc5c(cc4OC)C(=O)N4CC(=C)C[C@H]4C(O)N5)c(OC)cc3C(=O)N2C1 (stereo partly shown) [Compound 16] = 1

---

Tested on: IGROV1
ASSAY_METHOD_TEXT: 60-cell-line screen: IGROV1 (Ovarian)
Format: cell-based
TEST_SETTINGS: read-out: LC50
OBSERVATION_TYPE: LC50

* C=C1C[C@H]2C(O)Nc3cc(OCCCOc4cc5c(cc4OC)C(=O)N4CC(=C)C[C@H]4C(O)N5)c(OC)cc3C(=O)N2C1 (stereo partly shown) [Compound 16] | 1 µM

---

Tested on: UACC-62
ASSAY_METHOD_TEXT: 60-cell-line screen: UACC-62 (Melanoma)
Format: cell-based
TEST_SETTINGS: read-out: LC50 (the source's name)
OBSERVATION_TYPE: CC50 (nM)

• C=C1C[C@H]2C(O)Nc3cc(OCCCOc4cc5c(cc4OC)C(=O)N4CC(=C)C[C@H]4C(O)N5)c(OC)cc3C(=O)N2C1 (stereo partly shown) [Compound 16] = 7.1

---

ASSAY_METHOD_TEXT: in vivo efficacy, SF-295 (glioma) subcutaneous tumor model
Set-up: species or system athymic mice
TEST_SETTINGS: athymic, mouse, in vivo; SF-295, Early-SC, QD X5, intravenous
OBSERVATION_TYPE: MTD at 5 days (mg/kg)

• C=C1C[C@H]2C=Nc3cc(OCCCOc4cc5c(cc4OC)C(=O)N4CC(=C)C[C@H]4C=N5)c(OC)cc3C(=O)N2C1 = 0.12

---

Test system: SNB-19
ASSAY_METHOD_TEXT: 60-cell-line screen: SNB-19 (Central Nervous System)
Format: cell-based
TEST_SETTINGS: read-out: LC50 (the source's name)
OBSERVATION_TYPE: CC50

- C=C1C[C@H]2C(O)Nc3cc(OCCCOc4cc5c(cc4OC)C(=O)N4CC(=C)C[C@H]4C(O)N5)c(OC)cc3C(=O)N2C1 (stereo partly shown): 1000 nM

---

ASSAY_METHOD_TEXT: in vivo efficacy, OVCAR-3 (ovarian ca) subcutaneous tumor model
Parameters: species or system athymic mice
TEST_SETTINGS: athymic, mouse, in vivo; OVCAR-3, Early-SC, QD X5, intravenous
OBSERVATION_TYPE: MTD at 5 days

* C=C1C[C@H]2C=Nc3cc(OCCCOc4cc5c(cc4OC)C(=O)N4CC(=C)C[C@H]4C=N5)c(OC)cc3C(=O)N2C1 | 0.27 mg/kg

---

Test system: 786-0
ASSAY_METHOD_TEXT: 60-cell-line screen: 786-0 (Renal)
Format: cell-based
TEST_SETTINGS: read-out: LC50 (the source's name)
OBSERVATION_TYPE: CC50 (µM)

• C=C1C[C@H]2C(O)Nc3cc(OCCCOc4cc5c(cc4OC)C(=O)N4CC(=C)C[C@H]4C(O)N5)c(OC)cc3C(=O)N2C1 (stereo partly shown) = 1

---

ASSAY_METHOD_TEXT: in vivo efficacy, OVCAR-5 (ovarian ca) subcutaneous tumor model
Parameters: species or system athymic mice
TEST_SETTINGS: athymic, mouse, in vivo; OVCAR-5, Early-SC, Q4D X3, intravenous
OBSERVATION_TYPE: MTD at 9 days (mg/kg)

- C=C1C[C@H]2C=Nc3cc(OCCCOc4cc5c(cc4OC)C(=O)N4CC(=C)C[C@H]4C=N5)c(OC)cc3C(=O)N2C1: 0.45
